Assignment: determine reported MIC for the given compounds.
Output spec: scalar in mg/L, unitless text.

Prompt: Query the reported MIC for E.Floccosum; item: Clc1ccc(C(Cn2ccnc2)OCc2ccc(-c3ccccc3)cc2)c(Cl)c1 (stereo not shown) [R=C6 H5]
Completion: 10

Prompt: Query the reported MIC for E.Floccosum; item: Clc1ccccc1C(c1ccccc1)(c1ccccc1)n1ccnc1 [Clotrimazole]
Completion: 5

Prompt: Query the reported MIC for E.Floccosum; item: Clc1ccc(C(Cn2ccnc2)OCc2ccc(Sc3ccccc3)cc2)c(Cl)c1 (stereo not shown) [R=C6 H5 S]
Completion: 5

Prompt: Query the reported MIC for E.Floccosum; item: Clc1ccc(COC(Cn2ccnc2)c2ccc(Cl)cc2Cl)c(Cl)c1 (stereo not shown) [Miconazole]
Completion: 5
